Assay: Inhibition of Staphylococcus aureus DNA topoisomerase 4
pIC50: −log10 of the molar value.
readout_kind: pIC50

{"compound": "COc1ccc2nccc([C@@H](O)CC[C@@H]3CCN(C4CC(c5ccnc(C)n5)C4)C[C@@H]3C(=O)O)c2c1 (stereo partly specified)", "readout_kind": "pIC50", "assay_result": "< 3.92"}
{"compound": "COc1ccc2nccc([C@@H](O)CC[C@@H]3CCN(C4CC(c5c(F)cccc5F)C4)C[C@@H]3C(=O)O)c2c1 (stereo partly specified)", "readout_kind": "pIC50", "assay_result": "< 4.00"}
{"compound": "COc1ccc(F)c(C2CC(N3CC[C@@H](CC[C@H](O)c4ccnc5ccc(OC)cc45)[C@@H](C(=O)O)C3)C2)c1 (stereo partly specified)", "readout_kind": "pIC50", "assay_result": "< 3.92"}
{"compound": "COc1ccc2nccc([C@@H](O)CC[C@@H]3CCN(C4CC(c5ccc(Cl)cc5F)C4)C[C@@H]3C(=O)O)c2c1 (stereo partly specified)", "readout_kind": "pIC50", "assay_result": "< 4.00"}
{"compound": "COc1ccc2nccc([C@@H](O)CC[C@@H]3CCN(C4CC(c5ccc(Br)cc5F)C4)C[C@@H]3C(=O)O)c2c1 (stereo partly specified)", "readout_kind": "pIC50", "assay_result": "< 3.70"}
{"compound": "COc1ccc2nccc([C@@H](O)CC[C@@H]3CCN(C4CC(c5cccc(F)c5C)C4)C[C@@H]3C(=O)O)c2c1 (stereo partly specified)", "readout_kind": "pIC50", "assay_result": "< 3.92"}
